Conditions: in n-butanol, 293.15 K
READOUT TYPE: solubility (mole fraction)

Query :: Query (compound): O=c1nc[nH]c2[nH]ncc12 ; field requested: solubility (mole fraction)
Result :: 0.000124

---

Settings: in DMF, 333.15 K
READOUT TYPE: solubility (mole fraction)

Query :: Query (compound): O=c1nc[nH]c2[nH]ncc12 ; field requested: solubility (mole fraction)
Result :: 0.0121

---

Conditions: in acetonitrile, 308.15 K
READOUT TYPE: solubility (mole fraction)
Please state the value as a number alone, without comment.

Query :: Query (compound): O=c1nc[nH]c2[nH]ncc12 ; field requested: solubility (mole fraction)
Result :: 0.000286

---

Conditions: in acetonitrile, 293.15 K
READOUT TYPE: solubility (mole fraction)

Query :: Query (molecule): O=c1nc[nH]c2[nH]ncc12 ; field requested: solubility (mole fraction)
Result :: 0.00017

---

Details: in cyclohexane, 308.15 K
READOUT TYPE: solubility (mole fraction)
Please state the value as a number alone, without comment.

Query :: Query (compound): O=c1nc[nH]c2[nH]ncc12 ; field requested: solubility (mole fraction)
Result :: 1.61e-06

---

Settings: in n-hexanol, 278.15 K
READOUT TYPE: solubility (mole fraction)

Query :: Query (compound): O=c1nc[nH]c2[nH]ncc12 ; field requested: solubility (mole fraction)
Result :: 8.05e-05

---

Settings: in isopropanol, 323.15 K
READOUT TYPE: solubility (mole fraction)

Query :: Query (compound): O=c1nc[nH]c2[nH]ncc12 ; field requested: solubility (mole fraction)
Result :: 0.000245

---

Details: in acetone, 333.15 K
READOUT TYPE: solubility (mole fraction)
Please state the value as a number alone, without comment.

Query :: Query (compound): O=c1nc[nH]c2[nH]ncc12 ; field requested: solubility (mole fraction)
Result :: 0.00421

---

Conditions: in n-butanol, 278.15 K
READOUT TYPE: solubility (mole fraction)
Please state the value as a number alone, without comment.

Query :: Query (compound): O=c1nc[nH]c2[nH]ncc12 ; field requested: solubility (mole fraction)
Result :: 6.63e-05

---

Conditions: in 1,4-dioxane, 328.15 K
READOUT TYPE: solubility (mole fraction)

Query :: Query (compound): O=c1nc[nH]c2[nH]ncc12 ; field requested: solubility (mole fraction)
Result :: 0.000178

---

Details: in acetone, 328.15 K
READOUT TYPE: solubility (mole fraction)

Query :: Query (compound): O=c1nc[nH]c2[nH]ncc12 ; field requested: solubility (mole fraction)
Result :: 0.00365

---

Conditions: in acetonitrile, 323.15 K
READOUT TYPE: solubility (mole fraction)
Please state the value as a number alone, without comment.

Query :: Query (molecule): O=c1nc[nH]c2[nH]ncc12 ; field requested: solubility (mole fraction)
Result :: 0.000448

---

Conditions: in cyclohexane, 318.15 K
READOUT TYPE: solubility (mole fraction)
Please state the value as a number alone, without comment.

Query :: Query (compound): O=c1nc[nH]c2[nH]ncc12 ; field requested: solubility (mole fraction)
Result :: 2.48e-06

---

Conditions: in isopropanol, 303.15 K
READOUT TYPE: solubility (mole fraction)
Please state the value as a number alone, without comment.

Query :: Query (compound): O=c1nc[nH]c2[nH]ncc12 ; field requested: solubility (mole fraction)
Result :: 0.000112

---

Conditions: in water, 308.15 K
READOUT TYPE: solubility (mole fraction)

Query :: Query (molecule): O=c1nc[nH]c2[nH]ncc12 ; field requested: solubility (mole fraction)
Result :: 5.01e-05

---

Conditions: in n-propanol, 298.15 K
READOUT TYPE: solubility (mole fraction)
Please state the value as a number alone, without comment.

Query :: Query (molecule): O=c1nc[nH]c2[nH]ncc12 ; field requested: solubility (mole fraction)
Result :: 0.000114

---

Details: in acetone, 288.15 K
READOUT TYPE: solubility (mole fraction)
Please state the value as a number alone, without comment.

Query :: Query (compound): O=c1nc[nH]c2[nH]ncc12 ; field requested: solubility (mole fraction)
Result :: 0.000966

---

Details: in water, 313.15 K
READOUT TYPE: solubility (mole fraction)
Please state the value as a number alone, without comment.

Query :: Query (molecule): O=c1nc[nH]c2[nH]ncc12 ; field requested: solubility (mole fraction)
Result :: 6.44e-05

---

Details: in DMF, 303.15 K
READOUT TYPE: solubility (mole fraction)
Please state the value as a number alone, without comment.

Query :: Query (compound): O=c1nc[nH]c2[nH]ncc12 ; field requested: solubility (mole fraction)
Result :: 0.00509

---

Conditions: in water, 283.15 K
READOUT TYPE: solubility (mole fraction)
Please state the value as a number alone, without comment.

Query :: Query (molecule): O=c1nc[nH]c2[nH]ncc12 ; field requested: solubility (mole fraction)
Result :: 1.18e-05

---

Settings: in acetone, 303.15 K
READOUT TYPE: solubility (mole fraction)
Please state the value as a number alone, without comment.

Query :: Query (molecule): O=c1nc[nH]c2[nH]ncc12 ; field requested: solubility (mole fraction)
Result :: 0.00166

---

Details: in n-propanol, 303.15 K
READOUT TYPE: solubility (mole fraction)
Please state the value as a number alone, without comment.

Query :: Query (compound): O=c1nc[nH]c2[nH]ncc12 ; field requested: solubility (mole fraction)
Result :: 0.00014

---

Conditions: in methanol, 288.15 K
READOUT TYPE: solubility (mole fraction)
Please state the value as a number alone, without comment.

Query :: Query (compound): O=c1nc[nH]c2[nH]ncc12 ; field requested: solubility (mole fraction)
Result :: 3.61e-05

---

Details: in acetonitrile, 288.15 K
READOUT TYPE: solubility (mole fraction)
Please state the value as a number alone, without comment.

Query :: Query (molecule): O=c1nc[nH]c2[nH]ncc12 ; field requested: solubility (mole fraction)
Result :: 0.000141

---

Details: in DMF, 278.15 K
READOUT TYPE: solubility (mole fraction)
Please state the value as a number alone, without comment.

Query :: Query (compound): O=c1nc[nH]c2[nH]ncc12 ; field requested: solubility (mole fraction)
Result :: 0.00223

---

Conditions: in methanol, 298.15 K
READOUT TYPE: solubility (mole fraction)
Please state the value as a number alone, without comment.

Query :: Query (compound): O=c1nc[nH]c2[nH]ncc12 ; field requested: solubility (mole fraction)
Result :: 5.97e-05

---

Settings: in 2-butanone, 308.15 K
READOUT TYPE: solubility (mole fraction)
Please state the value as a number alone, without comment.

Query :: Query (molecule): O=c1nc[nH]c2[nH]ncc12 ; field requested: solubility (mole fraction)
Result :: 0.00231

---

Details: in isopropanol, 313.15 K
READOUT TYPE: solubility (mole fraction)
Please state the value as a number alone, without comment.

Query :: Query (compound): O=c1nc[nH]c2[nH]ncc12 ; field requested: solubility (mole fraction)
Result :: 0.000171

---

Conditions: in water, 293.15 K
READOUT TYPE: solubility (mole fraction)
Please state the value as a number alone, without comment.

Query :: Query (compound): O=c1nc[nH]c2[nH]ncc12 ; field requested: solubility (mole fraction)
Result :: 2.12e-05

---

Conditions: in 2-butanone, 323.15 K
READOUT TYPE: solubility (mole fraction)
Please state the value as a number alone, without comment.

Query :: Query (compound): O=c1nc[nH]c2[nH]ncc12 ; field requested: solubility (mole fraction)
Result :: 0.00367

---

Conditions: in 1,4-dioxane, 323.15 K
READOUT TYPE: solubility (mole fraction)
Please state the value as a number alone, without comment.

Query :: Query (molecule): O=c1nc[nH]c2[nH]ncc12 ; field requested: solubility (mole fraction)
Result :: 0.000148

---

Details: in methanol, 303.15 K
READOUT TYPE: solubility (mole fraction)
Please state the value as a number alone, without comment.

Query :: Query (compound): O=c1nc[nH]c2[nH]ncc12 ; field requested: solubility (mole fraction)
Result :: 7.6e-05

---

Conditions: in 1,4-dioxane, 308.15 K
READOUT TYPE: solubility (mole fraction)
Please state the value as a number alone, without comment.

Query :: Query (compound): O=c1nc[nH]c2[nH]ncc12 ; field requested: solubility (mole fraction)
Result :: 8.43e-05

---

Conditions: in NMP, 283.15 K
READOUT TYPE: solubility (mole fraction)
Please state the value as a number alone, without comment.

Query :: Query (compound): O=c1nc[nH]c2[nH]ncc12 ; field requested: solubility (mole fraction)
Result :: 0.017

---

Details: in n-heptanol, 298.15 K
READOUT TYPE: solubility (mole fraction)
Please state the value as a number alone, without comment.

Query :: Query (compound): O=c1nc[nH]c2[nH]ncc12 ; field requested: solubility (mole fraction)
Result :: 0.000239
